Measured values drawn from ChEMBL document CHEMBL2146359 for this set.

Measured CC50 at 72 h of individual entries
Experiment: Cytotoxicity against human HuH7 cells after 72 hrs by Alamar Blue assay
Format: cell-based
Settings: Huh-7 cells

Illustrative cases are given below, each with its answer.
SMILES_INPUT: CO[C@@H]1C[C@@H](C(=O)Nc2ccc(/C=C/c3ccc(NC(=O)[C@@H]4C[C@@H](OC)CN4C(=O)OCc4ccccc4)cc3)cc2)N(C(=O)OCc2ccccc2)C1
CC50 at 72 h: > 10 µM
--
SMILES_INPUT: Cc1cc(CC(=O)N2CCC[C@H]2C(=O)Nc2ccc(/C=C/c3ccc(NC(=O)[C@@H]4CCCN4C(=O)Cc4cc(C)no4)cc3)cc2)on1
CC50 at 72 h: > 10 µM
--
SMILES_INPUT: O=C(Nc1ccc(/C=C/c2ccc(NC(=O)[C@@H]3C[C@H](O)CN3C(=O)OCc3ccccc3)cc2)cc1)[C@@H]1C[C@H](O)CN1C(=O)OCc1ccccc1
CC50 at 72 h: > 10 µM

Next compound, please.
Give the measured CC50 at 72 h for CC(C)(C)O[C@H]1C[C@@H](C(=O)Nc2ccc(/C=C/c3ccc(NC(=O)[C@@H]4C[C@H](OC(C)(C)C)CN4C(=O)OCc4ccccc4)cc3)cc2)N(C(=O)OCc2ccccc2)C1
> 10 µM

====

Assay: Metabolic stability in rat liver microsomes assessed as compound remaining after 10 mins
Type: ADME, Microsome
Conditions: read-out: Stability
PROPERTY: remaining at 10 min (%)
The reply should contain only the number, in %.

Here is how some compounds turned out for remaining at 10 min.
SMILES_INPUT: CC(=O)N1CCC[C@H]1C(=O)Nc1ccc(/C=C/c2ccc(NC(=O)[C@@H]3CCCN3C(=O)Cc3ccccc3)cc2)cc1
UNITS_TEXT: %
remaining at 10 min: 82

SMILES_INPUT: O=C(Nc1ccc(/C=C/c2ccc(NC(=O)[C@@H]3CCCN3C(=O)CC3CC3)cc2)cc1)[C@@H]1CCCN1C(=O)CC1CC1
UNITS_TEXT: %
remaining at 10 min: 84

SMILES_INPUT: O=C(Nc1ccc(/C=C/c2ccc(NC(=O)[C@@H]3C[C@@H](O)CN3C(=O)OCc3ccccc3)cc2)cc1)[C@@H]1C[C@@H](O)CN1C(=O)OCc1ccccc1
UNITS_TEXT: %
remaining at 10 min: 99

SMILES_INPUT: O=C(Nc1ccc(/C=C/c2ccc(NC(=O)[C@@H]3CCCN3C(=O)OCc3ccccc3)cc2)cc1)[C@@H]1CCCN1C(=O)OCc1ccccc1
UNITS_TEXT: %
remaining at 10 min: 77

Read the entry O=C(Nc1ccc(/C=C/c2ccc(NC(=O)[C@@H]3CCCN3C(=O)Cc3cccnc3)cc2)cc1)[C@@H]1CCCN1C(=O)Cc1cccnc1 and write its reported remaining at 10 min.
88

====

Assay: Cmax in rat at 2.8 mg/kg, po and iv
Format: ADME, organism-based
Parameters: dose 2.8 mg/kg, route oral
Conditions: in vivo
PROPERTY: Cmax (ng/mL)
Answer with a number only, understood to be in ng/mL.

Answer with the recorded Cmax of O=C(Nc1ccc(/C=C/c2ccc(NC(=O)[C@@H]3CCCN3C(=O)CC3CC3)cc2)cc1)[C@@H]1CCCN1C(=O)CC1CC1 only.
1500

====

compounds and their reported bioavailability
Experiment: Oral bioavailability in rat at 1.8 mg/kg
Format: ADME, organism-based
Conditions: in vivo
// units = %; emit number, no label

SMILES_INPUT: O=C(Nc1ccc(/C=C/c2ccc(NC(=O)[C@@H]3CCCN3C(=O)Cc3cccnc3)cc2)cc1)[C@@H]1CCCN1C(=O)Cc1cccnc1
OBSERVED_MEASUREMENT: 10

Then this compound:
For the compound O=C(Nc1ccc(/C=C/c2ccc(NC(=O)[C@@H]3CCCN3C(=O)OCc3ccccc3)cc2)cc1)[C@@H]1CCCN1C(=O)OCc1ccccc1 , give its measured bioavailability value.
2

====

Assay: AUC in rat at 2.8 mg/kg, po
Assay type: ADME, organism-based
Set-up: dose 2.8 mg/kg, route oral
Settings: plasma
PROPERTY: AUC (ng·h/mL)
Unit ng·h/mL implied. Number only.

Using the record for O=C(Nc1ccc(/C=C/c2ccc(NC(=O)[C@@H]3CCCN3C(=O)CC3CC3)cc2)cc1)[C@@H]1CCCN1C(=O)CC1CC1 , state its measured AUC.
11900

====

Listed next: entries and their corresponding Cmax.
Assay: Cmax in rat at 1.8 mg/kg, po and iv
Type: ADME, organism-based
Design: dose 1.8 mg/kg, route oral
Details: in vivo
Give your result in ng/mL as a bare value.

SMILES_INPUT: O=C(Nc1ccc(/C=C/c2ccc(NC(=O)[C@@H]3CCCN3C(=O)Cc3cccnc3)cc2)cc1)[C@@H]1CCCN1C(=O)Cc1cccnc1
OBSERVED_MEASUREMENT: 120

# next compound below
State its Cmax for this compound: O=C(Nc1ccc(/C=C/c2ccc(NC(=O)[C@@H]3CCCN3C(=O)OCc3ccccc3)cc2)cc1)[C@@H]1CCCN1C(=O)OCc1ccccc1
4

====

Experiment: AUC in rat at 1.8 mg/kg, po
Assay type: ADME, organism-based
Design: dose 1.8 mg/kg, route oral
Details: plasma
Measured AUC accompanies every entry in the list below.
Write the value in ng·h/mL as a bare number.

SMILES_INPUT: O=C(Nc1ccc(/C=C/c2ccc(NC(=O)[C@@H]3CCCN3C(=O)OCc3ccccc3)cc2)cc1)[C@@H]1CCCN1C(=O)OCc1ccccc1
OBSERVED_MEASUREMENT: 37

Would you kindly look at the next entry?
Note down AUC recorded for O=C(Nc1ccc(/C=C/c2ccc(NC(=O)[C@@H]3CCCN3C(=O)Cc3cccnc3)cc2)cc1)[C@@H]1CCCN1C(=O)Cc1cccnc1
322

====

Experiment: Half life in rat at 1.8 mg/kg, po and iv
Assay type: ADME, organism-based
Parameters: dose 1.8 mg/kg, route oral
Details: in vivo
Consider the following compounds and their measured half-life readings.
Report the figure in h without appending any unit label.

SMILES_INPUT: O=C(Nc1ccc(/C=C/c2ccc(NC(=O)[C@@H]3CCCN3C(=O)Cc3cccnc3)cc2)cc1)[C@@H]1CCCN1C(=O)Cc1cccnc1
UNITS_TEXT: h
half-life: 9.3

Let me know recorded half-life for O=C(Nc1ccc(/C=C/c2ccc(NC(=O)[C@@H]3CCCN3C(=O)OCc3ccccc3)cc2)cc1)[C@@H]1CCCN1C(=O)OCc1ccccc1 , thanks.
4.6

====

Tested on: Rattus norvegicus
Experiment: Volume of distribution at steady state in rat at 2.8 mg/kg, po and iv
Type: ADME, organism-based
Set-up: dose 2.8 mg/kg, route oral
Details: in vivo
PROPERTY: Vdss (L/kg)
Answer format: numeric, L/kg implied, no suffix.

Quickly give me recorded Vdss for O=C(Nc1ccc(/C=C/c2ccc(NC(=O)[C@@H]3CCCN3C(=O)CC3CC3)cc2)cc1)[C@@H]1CCCN1C(=O)CC1CC1
0.8
